- ASSAY TARGET: T1, Full length human HtrA1 (HuHtrA1) (Q23-P480), N-terminal His6 tag (human, UniProt Q92743 23-480)
- T1 construct: Expressed in Trichoplusia ni insect cells
- T1 sequence (Q92743 other isoform, or with tags, fused parts or gaps): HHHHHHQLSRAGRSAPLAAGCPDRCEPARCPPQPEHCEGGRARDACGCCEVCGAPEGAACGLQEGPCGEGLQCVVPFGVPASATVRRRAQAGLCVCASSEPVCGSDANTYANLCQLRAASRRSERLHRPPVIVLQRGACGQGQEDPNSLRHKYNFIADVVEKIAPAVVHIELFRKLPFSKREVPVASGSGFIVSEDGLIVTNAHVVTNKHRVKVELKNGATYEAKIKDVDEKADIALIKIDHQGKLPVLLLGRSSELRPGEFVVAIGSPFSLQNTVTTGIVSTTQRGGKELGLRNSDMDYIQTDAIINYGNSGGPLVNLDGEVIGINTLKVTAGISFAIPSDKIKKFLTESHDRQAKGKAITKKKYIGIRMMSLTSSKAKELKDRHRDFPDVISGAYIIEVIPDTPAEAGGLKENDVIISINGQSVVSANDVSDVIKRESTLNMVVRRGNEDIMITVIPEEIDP
- MEASUREMENT DESCRIPTION: SPR (BIAcore T100), single-cycle kinetics, biotinylated human HtrA1 captured on streptavidin, Fab in solution
PROPERTY LABEL: koff (s⁻¹)

YW505.94a Fab (Fab, V domains shown, Tested as Fab) VH: EVQLVESGGGLVQPGGSLRLSCAASGFSISGYYIHWVRQAPGKGLEWVGWIDPYGGDTNYADSVKGRFTISADTSKNTAYLQMNSLRAEDTAVYYCARGTFLTSWGHYFDYWGQGT VL: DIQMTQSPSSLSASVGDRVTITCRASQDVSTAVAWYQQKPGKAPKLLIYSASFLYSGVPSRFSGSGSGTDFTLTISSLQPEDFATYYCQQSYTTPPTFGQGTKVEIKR : 0.0448
Fab94 (anti-HtrA1 antibody YW505.94, Fab format) (Fab, V domains shown) VH: EVQLVESGGGLVQPGGSLRLSCAASGFNISGYYIHWVRQAPGKGLEWVGWIDPYGGDTNYADSVKGRFTISADTSKNTAYLQMNSLRAEDTAVYYCARGTFLTSWGHYFDYWGQGT VL: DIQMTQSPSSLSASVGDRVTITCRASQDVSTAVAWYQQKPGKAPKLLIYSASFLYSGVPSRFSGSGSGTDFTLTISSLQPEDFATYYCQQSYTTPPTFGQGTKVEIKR : 0.0109
YW505.94a.28 Fab (Fab, V domains shown) VH: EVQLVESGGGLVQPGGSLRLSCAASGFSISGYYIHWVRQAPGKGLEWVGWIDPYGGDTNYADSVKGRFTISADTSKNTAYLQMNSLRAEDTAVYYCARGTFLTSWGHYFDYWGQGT VL: DIQMTQSPSSLSASVGDRVTITCRASQSINTYLAWYQQKPGKAPKLLIYSASFLYSGVPSRFSGSGSGTDFTLTISSLQPEDFATYYCQQSDDTPPTFGQGTKVEIKR : 0.00574
YW505.94a.54 Fab (Fab, V domains shown) VH: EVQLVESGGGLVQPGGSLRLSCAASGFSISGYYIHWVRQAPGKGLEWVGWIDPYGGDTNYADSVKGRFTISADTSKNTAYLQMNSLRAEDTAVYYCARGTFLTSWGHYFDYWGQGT VL: DIQMTQSPSSLSASVGDRVTITCRASQVVGNYLAWYQQKPGKAPKLLIYSASFLYSGVPSRFSGSGSGTDFTLTISSLQPEDFATYYCQQSDDHPPTFGQGTKVEIKR : 0.00784
